assay: folding stability dG unfold from trypsin proteolysis; higher = more stable
Use Y when the recorded folding stability dG unfold is no lower than -0.3 kcal/mol; use N when it is lower.

Exercise: Can SAGGSAMIKTYEEEVELTVPGGSTPVKVRVKTIEKIEKDEKGNLKTEVVEVKIETPENAPAVALLLSAGGSA [r15_258_JUSTAS] be said to have folding stability dG unfold at or above -0.3 kcal/mol?
Key: N

Exercise: Check if folding stability dG unfold >= -0.3 kcal/mol (inclusive). Item: SAGGMKPGETWRIRTPGKTITIEVKDGKITVTVEENGKKKTIVVEAETEEEALEALRSIPGLEIEKVSAGGS [r16_583_TrROS_Hall]
Key: Y

Exercise: Exam item: decide whether the reported folding stability dG unfold for SSSSTLVSSYTLTLKDEKGNEITLKVDVYKFPSGSYRVEITRPDGTVTEYEFPASEPPTEEKIKELALKKSA [r9_616_JUSTAS] is at least -0.3 kcal/mol.
Key: Y

Exercise: Confirm if folding stability dG unfold reported for the sequence SAGGKKKAKAYIVEKTTEKEGLKYYKVLIELGGKPLVFVIKSTSLEEVEEAIKKLAEELGVEVEIVPGSAGG [r13_750_TrMRF] is -0.3 kcal/mol or above.
Key: Y

Exercise: Could you tell me if the measured folding stability dG unfold of SAGGSAGGSAGSVTVSSTTTTLTDSMRVITETFTSPDLVKVTFVPTSNPEDVTVTTLPSASAGGSAGGSAGG [r11_1046_JUSTAS] reaches -0.3 kcal/mol or more?
Key: N

Exercise: Does SAGGSAGGSAGGMPIPVTITVSDPATGTTKVVKTVLVTSPEKLEEVISKLPEGKKYTVVESAGGSAGGSAGG [r7_307_JUSTAS] have a reported folding stability dG unfold of at least -0.3 kcal/mol?
Key: N

Exercise: Please indicate if the recorded folding stability dG unfold for SAGGSAGGSAGGSMKITKTLIPETGLYKVTITLPGGKPVEIEAPPSSSLEEVKKKAEKLSAGGSAGGSAGGS [r4_205_JUSTAS] meets or exceeds -0.3 kcal/mol.
Key: Y

###

assay: folding stability dG unfold (combined trypsin and chymotrypsin); higher = more stable
Would you kindly list folding stability dG unfold for each of these sequences?
Report only the number, with the unit kcal/mol understood.

Exercise: Quick one: give measured folding stability dG unfold for SAGGSAGGGSLSKPKKYELVATFTFPGTVEEAKEFLEKLLPEDWKVEIEETPDFLKIKLYKRLDSAGGSAGG [r6_952_TrMRF]
Key: 4.06

Exercise: Recall and state the measured folding stability dG unfold for SAGGSAGGSATTTTAPDGSPVTVYPETGVARVYDPATGLWTRLTTRPDGVVEETPLPPGAPLESAGGSAGGS [r12_997_JUSTAS] .
Key: 0.307

Exercise: Look up folding stability dG unfold of SAGGSAGGSAGGKPKVIEIEITDKNGKKRKIKLIEKDGYVYLYDEKTGKLVKKFKLKDLSAGGSAGGSAGGS [r10_589_TrROS_Hall] and report it.
Key: 3.61

Exercise: For the sequence SAGGMIELTIVVKTKEEAEKAAEELARKLAEELGVEVTVTSVEVEEVEDPETGETYLVVRVRIEVKPSAGGS [r8_171_TrROS_Hall] , give its measured folding stability dG unfold value.
Key: 4.53

###

assay: folding stability dG unfold (combined trypsin and chymotrypsin); higher = more stable
Recorded folding stability dG unfold split into classes interval 1 (below 3 kJ/mol), interval 2 (3 kJ/mol to below 10 kJ/mol), interval 3 (10 kJ/mol or more)

Exercise: Sort SAGGSAGGSMEVDIEVETLETEVSFLPGDLIKVKKLVKITLPNGEVLEEETEEIIPKSEIGKLSAGGSAGGS [r12_1028_JUSTAS] into one of the categories.
Key: interval 1

Exercise: Please report the category associated with SAGGSAGGSSVIEVTFSDGSKALFFPGSQKVVVYNPSTKKKIVIPPGVSPETALKAIAEGKPISAGGSAGGS [r12_832_TrMRF] , nothing else.
Key: interval 1

Exercise: Assign a bin to SAGGSAGGMKEVIEAALKDGSKEFYAPGFSPDKVYDVKITVYPGEGKVEIEVEGKRFTVSPEDLSAGGSAGG [r6_749_TrMRF]
Key: interval 2

Exercise: Which bin should I file SAGGSAGGSAGGSFELVGLVSEFEDENGIPVRVFKAKNPLLGYEFLVVVLPNGEVFFLPSAGGSAGGSAGGS [r10_1123_TrMRF] under?
Key: interval 3

Exercise: Kindly state the category for this sequence: SAGGMVTVTDPNGVKHEYKLKVKITFEKPDGKPVTVEIEFDNVTVEDIVKIAKEIESKGYKLVSIEISSAGG [r13_227_TrMRF]
Key: interval 3

Exercise: Sort into band: SAMPVVTLKAKVTIHSDPNGIEEKEIEITVTFPDPNVGLEEAKKKAEEAIKEYAEKNGLKIELEEITIESAG [r14_190_JUSTAS]
Key: interval 2

Exercise: Which folding stability dG unfold category applies to SAMTTTETFEEGDYVYTVITTKIPSSLPPDSVVTIPVTTPLGAESEVVSEPGGTITVKVRLKKEDPELLSAG [r14_754_JUSTAS] here?
Key: interval 1

Exercise: Band for the recorded folding stability dG unfold of SAGGAVEKNSNNPNTSPEKAKEIAEEIAEELKKEGHVPKSISFSEKENGKLTATIKIEDGKELTIGLSAGGS [r8_485_JUSTAS] ?
Key: interval 1

Exercise: Hello team, could you let me know which band the following sequence falls into: SGVEYIEIPLEVTLDAPLEKAFEFLEDLAEEFGLGDIEVLEVEVDPETGKVRVKALARIAIAPPPPPSLESA [r9_918_TrMRF]
Key: interval 3

Exercise: Which class is correct for the following sequence? GMTVTHTAEAGGRPLTITVTRSPDGWEVTVTDPDGTPIFSKTIPSDKNATLTLTDSAGNPLVTVNITLPPES [r1_34_JUSTAS]
Key: interval 3

Exercise: State the class of the sequence shown: SAGGSPTIDITPEVFEELKKKGVTPDKESFNITASLPDGTVYEGTITLPPSNPNIPFEYKPVDKPLESAGGS [r16_497_JUSTAS]
Key: interval 1

Exercise: Lab note: sort SAGGSAKITIKPGETITITIKLENGETVEIRMRVEELPDGTYKITMEITYPDGSKIEMELTLKIKPSAGGSA [r15_476_TrROS_Hall] into the matching folding stability dG unfold band.
Key: interval 3

Exercise: Pick a category. Item: SAGGSAGGMVFENLSEEEAKIIAKNIAENFKKKYPNVKIKVEAEVYKLPNPKVIVVIKLEIEEESAGGSAGG [r6_787_TrMRF]
Key: interval 3

Exercise: Pick a category. Item: SAPKLEIEEVHVNPNDGMVMITFQIDNLPPGLKITIKPKNGKPRRWTGEPGKPIMFMIPPGVDDIEIEWSAG [r14_671_TrROS]
Key: interval 2

Exercise: Field: class (folding stability dG unfold) — entry: SAGGSAGGSAGGMTLEEVKKALEELGIKEENQTVTIELEDGSKVKITVKDGKVVLEVEPSAGGSAGGSAGGS [r10_604_TrROS_Hall]
Key: interval 3

Exercise: Given SAGGGSISPAIVAALRAAGASLEEIVAYLNEQGYPIASVLGEEEHHHHHHITLLLPETGETVTVELHSAGGS [r8_179_JUSTAS] , name the class its folding stability dG unfold places it in.
Key: interval 3

Exercise: For the record SAGGSAGGSAGGWVIRVTIKHPNGKKRTIMIPMPPDNIEEVAKNLMPQGYEIKEPEIFPGSAGGSAGGSAGG [r7_159_TrROS] , report the class its folding stability dG unfold corresponds to.
Key: interval 2

Exercise: Which of the defined bands does the recorded folding stability dG unfold of SAGGSAGGSMVITVDPSLSPEEAVERAKEEVKKEVPESEPVEVTVVIKDPETGKTTEIPVKLDSAGGSAGGS [r12_1051_JUSTAS] sit within?
Key: interval 1

Exercise: Assign a bin to SAGGGPLRTVEVELEFETEEEAEKAIKEYLEKLGLPPEKVEVSFVSREERLVEDKIVYRYKFVFTLPSAGGS [r16_240_JUSTAS]
Key: interval 3

Exercise: Assign a bin to SAGGSAGGSAEVPKPGEAKPVLVTSSFTIPLPNGGTLEITTVDLVDVATGTVTPRVEVRSLDSAGGSAGGSA [r18_123_TrMRF]
Key: interval 1

Exercise: Kindly identify the class of SAGGSAMFTSSTSTDPATGLRRTTTLFPDSSAAVTTTVAVPPVPPLSPEAVAAGEAAAAAGRPPAVSAGGSA [r15_631_JUSTAS] .
Key: interval 1

Exercise: Form: Item = SAGGSAEVRVVAEPLPDDYLLVLVEFDSPEVLPEALEAIPGVVEVRAYRFLEEGRPRYRVLALVPASAGGSA [r15_344_TrMRF] ; Class = ?
Key: interval 2

Exercise: // return the class label for SAGGSAGGSAGPNAVYLGELEVTTRNPDGDRPLRVRVELYLVPTPEGLRLLARVLEVEELSAGGSAGGSAGG [r11_113_TrMRF]
Key: interval 3

Exercise: Please indicate the class for SAGGSVEISEEELEKLIEEGRVDKKEEYPEGVPSKKYETEKLGKELGKPITINVTTTPDGKAVAKVLKSAGG [r13_163_JUSTAS] based on its folding stability dG unfold.
Key: interval 1

Exercise: Hi, small favor: classify SAGGMKITVTPSTDPNTPLTRETVTVPPTADPEAVAEKLRRAYPDGSTTTVTPRPDGTIVVTTTLPASAGGS [r8_255_JUSTAS] by its folding stability dG unfold when you get a moment.
Key: interval 1

Exercise: Textbook exercise: identify the category of the sequence given here, SAGMVIKVKVKNKDGEELELVIEIPEEELPEELTEEELKELAKKLAEELAKEGKVEVVEVEIVEPEELSAGG [r19_27_TrROS_Hall] , according to its measured value.
Key: interval 2
